Please provide measured AUC(0-t) at 24 h for the entries that follow.
# assayNotes: AUC (0 to 24 hrs) in male C57BL/6 mouse at 10 mg/kg, po measured after 24 hrs by UPLC/MS/MS analysis
# Type: ADME, organism-based
# studyConditions: in vivo
Only the number, expressed in µM·h, is required.

Query :: May I ask what AUC(0-t) at 24 h has been recorded for Cn1nc([C@@H]2O[C@H](CO)[C@H](O)[C@H](n3cc(-c4ccc(Br)c(F)c4F)nn3)[C@H]2O)n(-c2cc(Cl)ccc2C(F)(F)F)c1=S (stereo in doubt; 20) ?
Result :: 12

Query :: Entry `OC[C@H]1O[C@@H](c2ncnn2-c2ccc(Cl)c(Cl)c2)[C@H](O)[C@@H](n2cc(-c3cc(F)c(F)c(F)c3)nn2)[C@H]1O` : reported AUC(0-t) at 24 h = ?
Result :: 1.8

Query :: Which value of AUC(0-t) at 24 h has been reported for `OC[C@H]1O[C@H](Sc2ccc(Cl)c(Cl)c2)[C@H](O)[C@@H](n2cc(-c3cc(F)c(F)c(F)c3)nn2)[C@H]1O` in the records?
Result :: 84

Query :: Fill blank: measured AUC(0-t) at 24 h of the molecule `CO[C@@H]1[C@@H](n2cc(-c3ccc(Cl)c(F)c3F)nn2)[C@@H](O)[C@@H](CO)O[C@H]1c1nncn1-c1cc(Cl)ccc1OC(F)(F)F` is ____.
Result :: 16
